Recorded values, source PubChem BioAssay (EPA / NIEHS).

experiment: CCTE_Shafer_MEA_dev_spike_duration_mean: CCTE's Neural Network Formation Assay for Mean Spike Duration, Shafer Lab (AID 2284051);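 note: mean network spike duration pooled as area under curve over DIV 5 to 12 recordings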;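 for AC50: potency for a decrease in mean network spike duration versus DMSO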
Active and inactive are the calls of the source. Rule for the calls: active = hit-call score of the fitted dose curve at least 0.9, where 1 is the maximum; inactive = score below 0.9.
RESULT_TYPE: AC50

Below, 5 compounds whose answers are already recorded.
{"COMPOUND": "OC(Cc1ccccc1Cl)(Cn1[nH]cnc1=S)C1(Cl)CC1 (stereo unspecified)", "RESULT_TYPE": "AC50", "OBSERVED_RESULT": "33.6 µM (active)"}
{"COMPOUND": "CC(F)(F)CC(F)(F)F", "RESULT_TYPE": "AC50", "OBSERVED_RESULT": "inactive"}
{"COMPOUND": "C=CC(F)(C(F)(F)F)C(F)(F)C(F)(F)F (stereo unspecified)", "RESULT_TYPE": "AC50", "OBSERVED_RESULT": "inactive"}
{"COMPOUND": "Cc1ccccc1OP(=O)(Oc1ccccc1C)Oc1ccccc1C", "RESULT_TYPE": "AC50", "OBSERVED_RESULT": "21.4 µM (active)"}
{"COMPOUND": "FC(F)OCC(F)(F)C(F)(F)F", "RESULT_TYPE": "AC50", "OBSERVED_RESULT": "inactive"}

Turning now to a further record.
For the compound "O=S(=O)(F)C(F)(F)C(F)(F)C(F)(F)C(F)(F)F" , what AC50 is on record?
inactive
